Exercise: for every item that follows, state its recorded IC50.
target: D3 DAR (Homo sapiens); experiment: Go BRET activation assay, D3 DAR; type: cell-based; conditions: EC80 DA (30 nM)
Sequence (P35462 whole entry): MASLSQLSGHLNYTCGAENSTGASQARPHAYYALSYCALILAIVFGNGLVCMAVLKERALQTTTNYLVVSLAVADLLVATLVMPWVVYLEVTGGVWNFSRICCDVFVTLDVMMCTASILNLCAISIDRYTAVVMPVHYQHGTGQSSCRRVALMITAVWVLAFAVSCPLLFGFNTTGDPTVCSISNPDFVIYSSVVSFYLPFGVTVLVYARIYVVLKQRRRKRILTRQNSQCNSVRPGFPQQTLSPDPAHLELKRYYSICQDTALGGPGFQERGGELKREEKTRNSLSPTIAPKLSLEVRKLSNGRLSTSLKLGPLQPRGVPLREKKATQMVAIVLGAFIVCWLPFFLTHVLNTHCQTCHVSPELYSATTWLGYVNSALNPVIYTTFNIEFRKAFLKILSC

Inquiry: Give D3 DAR (Homo sapiens) IC50 for Cc1[nH]c(C)c(S(=O)(=O)Nc2ccc(C(F)(F)F)c(Cl)c2)c1C(=O)N(C)C [compound 21]
Reply text: 10 to 50 µM

Inquiry: Give D3 DAR (Homo sapiens) IC50 for Cc1ccc(NS(=O)(=O)c2c(C)[nH]c(C)c2C(=O)N2CCCC2)cc1Cl [Cmp. 1]
Reply text: 10 to 50 µM

Inquiry: Give D3 DAR (Homo sapiens) IC50 for Cc1[nH]c(C)c(S(=O)(=O)Nc2cc(Cl)c(C(F)(F)F)c(Cl)c2)c1C(=O)N1CCC(F)(F)C1 [compound 35]
Reply text: < 1 µM

Inquiry: Give D3 DAR (Homo sapiens) IC50 for Cc1ccc(NS(=O)(=O)c2c(C)[nH]c(C)c2C(=O)N2CCCC2)cc1 [compound 10]
Reply text: > 50 µM

Inquiry: Give D3 DAR (Homo sapiens) IC50 for Cc1[nH]c(C)c(S(=O)(=O)Nc2ccc(Cl)c(C(F)(F)F)c2)c1C(=O)N1CCCC1 [compound 7]
Reply text: 1 to 10 µM

Inquiry: Give D3 DAR (Homo sapiens) IC50 for Cc1[nH]c(C)c(S(=O)(=O)Nc2cc(Cl)cc(C(F)(F)F)c2)c1C(=O)N1CCC(F)(F)C1 [compound 40]
Reply text: 10 to 50 µM

Inquiry: Give D3 DAR (Homo sapiens) IC50 for Cc1[nH]c(C)c(S(=O)(=O)Nc2ccc(Cl)cc2C(F)(F)F)c1C(=O)N1CCC(F)(F)C1 [compound 42]
Reply text: 10 to 50 µM

Inquiry: Give D3 DAR (Homo sapiens) IC50 for Cc1[nH]c(C)c(S(=O)(=O)Nc2ccc(C(F)(F)F)c(Cl)c2)c1C(=O)N1CCCC1 [Cmp. 5]
Reply text: 1 to 10 µM

Inquiry: Give D3 DAR (Homo sapiens) IC50 for Cc1[nH]c(C)c(S(=O)(=O)Nc2ccc(C(F)(F)F)c(Cl)c2)c1C(=O)N1CC(F)(F)C(F)(F)C1 [compound 27]
Reply text: 1 to 10 µM

Inquiry: Give D3 DAR (Homo sapiens) IC50 for O=C(c1c(S(=O)(=O)Nc2ccc(C(F)(F)F)c(Cl)c2)c[nH]c1C(F)(F)F)N1CCCC1 [compound 37]
Reply text: > 50 µM

Inquiry: Give D3 DAR (Homo sapiens) IC50 for Cc1[nH]c(C)c(S(=O)(=O)Nc2ccc(S(F)(F)(F)(F)F)cc2)c1C(=O)N1CCC(F)(F)C1 [compound 28]
Reply text: 1 to 10 µM

Inquiry: Give D3 DAR (Homo sapiens) IC50 for Cc1ccc(NS(=O)(=O)c2c(C)[nH]c(C)c2C(=O)N2CCCC2)cc1C [compound 12]
Reply text: > 50 µM

Inquiry: Give D3 DAR (Homo sapiens) IC50 for Cc1ccc(NS(=O)(=O)c2c(C)[nH]c(C)c2C(=O)N2CCCC2C)cc1Cl (centres unmarked) [compound 3]
Reply text: 1 to 10 µM

Inquiry: Give D3 DAR (Homo sapiens) IC50 for CCN(C)C(=O)c1c(C)[nH]c(C)c1S(=O)(=O)Nc1ccc(C(F)(F)F)c(Cl)c1 [compound 29]
Reply text: 10 to 50 µM

Inquiry: Give D3 DAR (Homo sapiens) IC50 for Cc1[nH]c(C)c(S(=O)(=O)Nc2ccc(C3CC3)c(Cl)c2)c1C(=O)N1CCC(F)(F)C1 [compound 36]
Reply text: 1 to 10 µM

Inquiry: Give D3 DAR (Homo sapiens) IC50 for Cc1ccc(CNS(=O)(=O)c2c(C)[nH]c(C)c2C(=O)N2CCCC2)cc1Cl [compound 9]
Reply text: > 50 µM

Inquiry: Give D3 DAR (Homo sapiens) IC50 for Cc1ccc(NS(=O)(=O)c2c(C)[nH]c(C)c2C(=O)N2CCCC2)cc1F [compound 16]
Reply text: 10 to 50 µM

Inquiry: Give D3 DAR (Homo sapiens) IC50 for Cc1ccc(NS(=O)(=O)c2c(C)[nH]c(C)c2C(=O)N2CCC(F)(F)C2)cc1Cl [Cmp. 2]
Reply text: 10 to 50 µM

Inquiry: Give D3 DAR (Homo sapiens) IC50 for Cc1ccc(NS(=O)(=O)c2c(C)[nH]c(C(F)(F)F)c2C(=O)N2CCCC2)cc1Cl [compound 38]
Reply text: 1 to 10 µM

Inquiry: Give D3 DAR (Homo sapiens) IC50 for CCc1ccc(NS(=O)(=O)c2c(C)[nH]c(C)c2C(=O)N2CCCC2)cc1 [compound 15]
Reply text: 10 to 50 µM

Inquiry: Give D3 DAR (Homo sapiens) IC50 for Cc1ccc(NS(=O)(=O)c2c(C)[nH]c(C)c2C(=O)N2CCCCC2)cc1Cl [compound 11]
Reply text: 10 to 50 µM

Inquiry: Give D3 DAR (Homo sapiens) IC50 for Cc1[nH]c(C)c(S(=O)(=O)Nc2ccc(F)cc2)c1C(=O)N1CCCC1 [compound 32]
Reply text: 1 to 10 µM

Inquiry: Give D3 DAR (Homo sapiens) IC50 for CCc1[nH]c(CC)c(S(=O)(=O)Nc2ccc(C(F)(F)F)c(Cl)c2)c1C(=O)N1CCCC1 [compound 39]
Reply text: 1 to 10 µM

Inquiry: Give D3 DAR (Homo sapiens) IC50 for Cc1[nH]c(C)c(S(=O)(=O)Nc2ccc(C(F)(F)F)c(Cl)c2)c1C(=O)N1CCN(C(=O)OC(C)(C)C)CC1 [compound 19]
Reply text: 10 to 50 µM

Inquiry: Give D3 DAR (Homo sapiens) IC50 for Cc1[nH]c(C)c(S(=O)(=O)Nc2ccc(C(F)(F)F)c(Cl)c2)c1C(=O)O [compound 22]
Reply text: 10 to 50 µM

Inquiry: Give D3 DAR (Homo sapiens) IC50 for Cc1ccc(NS(=O)(=O)c2c(C)[nH]c(C)c2C(=O)N2CCC2)cc1Cl [compound 6]
Reply text: 10 to 50 µM

Inquiry: Give D3 DAR (Homo sapiens) IC50 for Cc1[nH]c(C)c(S(=O)(=O)Nc2ccc(C(F)(F)F)c(Br)c2)c1C(=O)N1CCCC1 [Cmp. 18]
Reply text: > 50 µM

Inquiry: Give D3 DAR (Homo sapiens) IC50 for CCc1ccc(NS(=O)(=O)c2c(C)[nH]c(C)c2C(=O)N2CCCC2)cc1Cl [compound 8]
Reply text: 1 to 10 µM

Inquiry: Give D3 DAR (Homo sapiens) IC50 for Cc1[nH]c(C)c(S(=O)(=O)N2CCC(F)(F)C2)c1C(=O)Nc1ccc(C(F)(F)F)c(Cl)c1 [compound 24]
Reply text: > 50 µM

Inquiry: Give D3 DAR (Homo sapiens) IC50 for Cc1[nH]c(C)c(S(=O)(=O)Nc2ccc(C(F)(F)F)c(Cl)c2)c1C(=O)N1CCNCC1.Cl [compound 20]
Reply text: > 50 µM

Inquiry: Give D3 DAR (Homo sapiens) IC50 for CCNC(=O)c1c(C)[nH]c(C)c1S(=O)(=O)Nc1ccc(C(F)(F)F)c(Cl)c1 [compound 33]
Reply text: 10 to 50 µM

Inquiry: Give D3 DAR (Homo sapiens) IC50 for CCOC(=O)C1=NOC2(C1)C(=O)Nc1ccc(OC(F)(F)F)cc12 (centres unmarked) [compound 44]
Reply text: > 50 µM
